Target: MAGI2_4, Q86UL8
Sequence (Q86UL8 772-865): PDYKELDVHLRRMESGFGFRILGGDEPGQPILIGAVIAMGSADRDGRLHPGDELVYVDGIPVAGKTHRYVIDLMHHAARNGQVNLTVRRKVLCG
Assay: holdup assay
Design: key: below the threshold = too weak to quantify, mostly under pKd 3.1 to 4
Conditions: plain residues with an end cap or a label only (N-terminal biotin on a linker: ttds)
Measurement name: pKd

[[record]]
binder = "PFRSRSPSEV [GPR6, P46095]"
measurement_name = "pKd"
reported_measurement = "below the threshold"

[[record]]
binder = "GARVSKETPL [MAPK12, P53778]"
measurement_name = "pKd"
reported_measurement = "below the threshold"

[[record]]
binder = "PPRQRSETQV [HPV82-E6, Q9IR59]"
measurement_name = "pKd"
reported_measurement = 4.72

[[record]]
binder = "NPDALPETLV [ARHGAP6, O43182]"
measurement_name = "pKd"
reported_measurement = 4.42

[[record]]
binder = "SGGKRKETLV [NET1, Q7Z628]"
measurement_name = "pKd"
reported_measurement = 4.75


QUERY: Would you kindly share the measured pKd for FVETQHQTQV [FAT3, Q8TDW7] ?
RESULT: 3.91

QUERY: Looking for the measured pKd of SSIDLWETAL [SLC15A5, A6NIM6] , can you help?
RESULT: below the threshold

QUERY: State the recorded pKd for this entry: KLVIKTETTV [RASSF6, Q6ZTQ3]
RESULT: 4.45
